Task for the reader: assign each of the following compounds its reported pKi.
Recall that pKi is obtained by taking minus log10 of the concentration measured in molar.

Given the entry c1ccc([C@@H]2CC(c3c4ccccc4cc4ccccc34)=NN2)nc1 , what pKi was observed with UniProtKB P22303?
7.38

Given the entry O=[N+]([O-])c1cccc([C@@H]2CC(c3c4ccccc4cc4ccccc34)=NN2)c1 , what pKi was observed with UniProtKB P22303?
7.69

Given the entry Oc1ccccc1[C@@H]1CC(c2c3ccccc3cc3ccccc23)=NN1 , what pKi was observed with UniProtKB P22303?
7.61

Given the entry Oc1ccc([C@@H]2CC(c3c4ccccc4cc4ccccc34)=NN2)c(O)c1 , what pKi was observed with UniProtKB P22303?
8.14

Given the entry c1ccc([C@@H]2CC(c3c4ccccc4cc4ccccc34)=NN2)cc1 , what pKi was observed with UniProtKB P22303?
7.52

Given the entry COc1ccc([C@@H]2CC(c3c4ccccc4cc4ccccc34)=NN2)cc1 , what pKi was observed with UniProtKB P22303?
7.60

The origin of these recorded values is ChEMBL document CHEMBL2311270.
